EXPERIMENTAL CONTEXT: Day 20; G3-G9 groups; single IP dose; Mean±SEM
Under this convention, 1.0 denotes Weight change rate, Day 20 strictly below 5% and 0.0 denotes Weight change rate, Day 20 at or above 5%.

MOLECULE	ASSIGNED CATEGORY
CCCCOC(=O)Nc1nc(=O)n([C@@H]2O[C@H](CO)[C@@H](O)C2(F)F)cc1Br [Compound G6]	1.0
CC(C)(C)OC(=O)Nc1ccn([C@@H]2O[C@H](COC(=O)Cn3cnc([N+](=O)[O-])c3)[C@@H](O)C2(F)F)c(=O)n1 [Compound G9]	1.0
CC(C)(C)OC(=O)Nc1ccn([C@@H]2O[C@H](CO)[C@@H](O)C2(F)F)c(=O)n1 [Compound G3]	1.0
O=C(Nc1nc(=O)n([C@@H]2O[C@H](CO)[C@@H](O)C2(F)F)cc1Br)OCc1ccccc1 [Compound G7]	0.0
O=C(Nc1ccn([C@@H]2O[C@H](CO)[C@@H](O)C2(F)F)c(=O)n1)OCc1ccccc1 [Compound G4]	0.0
O=C(Nc1ccn([C@@H]2O[C@H](CO)[C@@H](O)C2(F)F)c(=O)n1)OCc1ccc([N+](=O)[O-])cc1 [Compound G5]	0.0

Origin of values: patent US10174067B2
